- testedSystem: estrogen receptor (Homo sapiens)
- Construct: expressed in transfected cells; host or cells: CHO cells (ribosome-free cytosol)
- Sequence (P03372 1-595): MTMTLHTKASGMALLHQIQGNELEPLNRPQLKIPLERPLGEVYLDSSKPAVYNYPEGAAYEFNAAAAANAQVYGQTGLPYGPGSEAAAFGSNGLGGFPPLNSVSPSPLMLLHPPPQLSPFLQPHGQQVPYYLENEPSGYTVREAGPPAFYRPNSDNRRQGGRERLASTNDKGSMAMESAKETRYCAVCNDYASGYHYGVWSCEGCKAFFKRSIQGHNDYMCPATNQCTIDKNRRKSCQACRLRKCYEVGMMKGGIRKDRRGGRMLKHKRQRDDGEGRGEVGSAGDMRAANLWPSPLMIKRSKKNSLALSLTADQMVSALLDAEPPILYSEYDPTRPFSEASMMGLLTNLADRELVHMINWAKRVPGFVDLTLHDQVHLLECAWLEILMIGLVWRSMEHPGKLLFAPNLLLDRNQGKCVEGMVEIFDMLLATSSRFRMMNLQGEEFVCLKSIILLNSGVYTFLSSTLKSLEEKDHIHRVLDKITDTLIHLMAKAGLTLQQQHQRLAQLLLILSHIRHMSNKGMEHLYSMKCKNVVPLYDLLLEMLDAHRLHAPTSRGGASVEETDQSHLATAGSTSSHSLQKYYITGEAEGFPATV
- assayExplanation: In vitro estrogen receptor binding assay
- experimentalSetup: read-out: Receptor Binding IC50's
# Lookup of reported IC50 keyed by entry
Please state the figure in nM; there is no need to write the unit.

>  <compound>
COc1ccc(-c2c(C)c3cc(OC)ccc3n2Cc2ccc(OCCN3CCCCC3)cc2)cc1

>  <measurementLabel>
IC50

>  <resultValue>
600

$$$$
>  <compound>
Cc1c(-c2ccc(O)cc2)n(Cc2ccc(OCCN3C[C@@H]4CC[C@H]3C4)cc2)c2ccc(O)cc12

>  <measurementLabel>
IC50

>  <resultValue>
1

$$$$

Tested on estrogen receptor (Homo sapiens): "Cc1c(-c2ccc(F)cc2)n(Cc2ccc(OCCN3CCCCCC3)cc2)c2ccc(O)cc12" . Observed IC50: 100

Noted IC50 for Cc1c(-c2ccc(O)cc2)n(Cc2ccc(OCCN3CC4(C)CC3CC(C)(C)C4)cc2)c2ccc(O)cc12 (stereo not shown) , tested on estrogen receptor (Homo sapiens): 150

###

- testedSystem: estrogen receptor (Homo sapiens)
- Construct: expressed in transfected cells; host or cells: CHO cells (ribosome-free cytosol)
- assayExplanation: In vitro estrogen receptor binding assay
- experimentalSetup: read-out: Receptor Binding IC50's
Counter-ions that a name gives are not always drawn.
Binarize IC50 at 70 nM; below is YES, at or above is NO.

>  <molecule>
CCCN(CCC)CCOc1ccc(Cn2c(-c3ccc(O)cc3)c(C)c3cc(O)ccc32)cc1 [Example No. 102]

>  <classAssignment>
NO

$$$$
>  <molecule>
Cc1c(-c2ccccc2)n(Cc2ccc(OCCN3CCCCC3)cc2)c2ccccc12 [Example No. 85]

>  <classAssignment>
NO

$$$$
>  <molecule>
Cc1c(-c2ccc(O)cc2)n(Cc2ccc(OCCN3CCCCC3)cc2)c2ccccc12 [Example No. 86, hydrochloride]

>  <classAssignment>
NO

$$$$

Request: Lab log: compare recorded IC50 with 70 nM; is it strictly lower for CCOc1ccc(-c2c(C)c3cc(O)ccc3n2Cc2ccc(OCCN3CCCCCC3)cc2)cc1 [Example No. 93] ?
Response: NO

Request: Report whether reported IC50 is lower than 70 nM (strictly) for Cc1c(-c2ccccc2)n(Cc2ccc(OCCN3CCCCC3)cc2)c2ccc(O)cc12 [Example No. 87]
Response: YES

Request: A record lists CCOc1ccc(-c2c(C)c3cc(O)ccc3n2Cc2ccc(OCCN3CCCCC3)cc2)cc1 [Example No. 92] . Is its IC50 below 70 nM?
Response: YES

Request: Strictly below 70 nM: is that where IC50 of Cc1c(-c2ccc(O)cc2)n(Cc2ccc(OCCN3CCCCC3C)cc2)c2ccc(O)cc12 (stereo not shown) [Example No. 108] sits?
Response: YES

Request: Find out if reported IC50 for Cc1c(-c2ccc(O)cc2)n(Cc2ccc(OCCN3CCCC(C)(C)C3)cc2)c2ccc(O)cc12 [Example No. 111] is less than 70 nM
Response: NO

Request: Dear colleague, could you confirm whether IC50 of Cc1c(-c2ccc(O)cc2)n(Cc2ccc(OCCN3CCCCC3)cc2)c2ccc(F)cc12 [Example No. 94] falls below 70 nM? Thanks.
Response: NO

Request: Identify whether the molecule Cc1c(-c2ccc(O)cc2)n(Cc2ccc(OCCN3CCC(C)CC3)cc2)c2ccc(O)cc12 [Example No. 110] records IC50 below 70 nM.
Response: YES

Request: Decide: IC50 of COc1ccc(-c2c(C)c3cc(O)ccc3n2Cc2ccc(OCCN3CCCCC3)cc2)cc1 [Example No. 89] strictly below 70 nM?
Response: NO

Request: Please check: IC50 for Cc1c(-c2ccc(O)cc2)n(Cc2ccc(OCCN3CCC(O)CC3)cc2)c2ccc(O)cc12 [Example No. 113] , strictly under 70 nM or not?
Response: YES

Request: Bench note: check whether CCCCN(CCCC)CCOc1ccc(Cn2c(-c3ccc(O)cc3)c(C)c3cc(O)ccc32)cc1 [Example No. 103] shows IC50 below 70 nM
Response: NO

Request: Decide: IC50 of Cc1c(-c2ccc(F)cc2)n(Cc2ccc(OCCN3CCCCC3)cc2)c2ccc(O)cc12 [Example No. 116] strictly below 70 nM?
Response: YES

Request: Record COc1ccc2c(c1)c(C)c(-c1ccc(O)cc1)n2Cc1ccc(OCCN2CCCCC2)cc1 [Example No. 88] : is its IC50 strictly below 70 nM?
Response: NO

###

- testedSystem: estrogen receptor (Homo sapiens, UniProt P03372)
- Construct: expressed in transfected cells; host or cells: CHO cells (ribosome-free cytosol)
- Sequence (P03372 1-595): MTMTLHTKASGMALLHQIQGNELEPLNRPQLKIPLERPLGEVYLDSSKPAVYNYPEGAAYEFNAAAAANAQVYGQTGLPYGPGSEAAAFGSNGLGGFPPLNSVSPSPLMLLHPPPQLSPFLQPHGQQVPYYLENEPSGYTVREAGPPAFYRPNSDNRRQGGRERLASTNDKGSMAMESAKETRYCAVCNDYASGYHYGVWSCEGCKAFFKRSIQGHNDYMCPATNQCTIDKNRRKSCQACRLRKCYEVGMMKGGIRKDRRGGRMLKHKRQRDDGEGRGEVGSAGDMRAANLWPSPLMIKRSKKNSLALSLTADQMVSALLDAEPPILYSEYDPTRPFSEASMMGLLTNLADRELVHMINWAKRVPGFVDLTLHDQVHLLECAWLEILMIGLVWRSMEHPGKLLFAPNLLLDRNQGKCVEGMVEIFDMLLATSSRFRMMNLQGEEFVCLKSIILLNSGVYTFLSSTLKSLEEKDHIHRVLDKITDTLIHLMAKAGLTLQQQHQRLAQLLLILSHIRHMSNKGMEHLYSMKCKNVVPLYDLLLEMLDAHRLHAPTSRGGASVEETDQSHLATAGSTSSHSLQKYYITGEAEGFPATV
- assayExplanation: In vitro estrogen receptor binding assay
- experimentalSetup: competition with [3H]17β-estradiol; cytosol of CHO cells overexpressing the estrogen receptor; read-out: Receptor Binding IC50's
measurementLabel: IC50 (nM)
Could you give me the number in nM? Just the number is fine.

>  <compound>
Cc1c(-c2ccc(O)cc2)n(Cc2ccc(OCC[N+](C)(C)C)cc2)c2ccc(O)cc12 [Example No. 106]

>  <IC50 / nM>
100

$$$$

Now for another entry.
The reported IC50 of the compound CCCCN(C)CCOc1ccc(Cn2c(-c3ccc(O)cc3)c(C)c3cc(O)ccc32)cc1 [Example No. 105] was 28
